Recorded pIC50 for the following compounds
Test system: HL-60
Test: Cytotoxicity against human HL60 cells assessed as decrease in cell viability after 48 hrs by MTS assay
Assay type: functional, cell-based
Conditions: HL-60, 48 h
pIC50: −log10 of the molar value.

See these solved cases before continuing.
CC(=O)O[C@H]1C(=O)[C@@]2(C)[C@H]([C@H](OC(=O)c3ccccc3)[C@]3(O)C[C@H](OC(=O)[C@H](O)[C@@H](NC(=O)c4ccccc4)c4ccccc4)C(C)=C1C3(C)C)[C@]1(OC(C)=O)CO[C@@H]1C[C@@H]2O    > 8.10
C=C1[C@@H]([C@H](C)C[C@@H](O)/C=C(\C)C(=O)O)CC[C@@]2(C)C3=CC[C@H]4C(C)(C)[C@H](OC(C)=O)CC[C@]4(C)[C@@H]3C[C@@H]12    < 5.00
CC(=O)O[C@@H]1CC[C@]2(C)[C@@H]3C[C@H]4C(C=O)=C([C@H](C)CC/C=C(/C)C(=O)O)CC[C@@]4(C)C3=CC[C@H]2C1(C)C    < 5.00
C=C1[C@@H]([C@H](C)CC/C=C(/C)C(=O)O)CC[C@@]2(C)C3=CC[C@H]4C(C)(C)[C@@H](O)CC[C@]4(C)[C@@H]3C[C@@H]12    < 5.00

Next compound, please.
Per the records, this compound ( "CC(=O)O[C@@H]1CC[C@]2(C)[C@@H]3C[C@H]4[C@@](C)(O)[C@@H]([C@H](C)CC/C=C(/C)C(=O)O)CC[C@@]4(C)C3=CC[C@H]2C1(C)C" ) has pIC50 equal to < 5.00

All values here come from ChEMBL document CHEMBL4000161.
